# Tested on: ANGPTL3 gene
# experimentDescription: Example 7: serum LDL in mice
# Assay type: in vivo
# Parameters: key: ratio: (level/pre-treatment day -1 level) ÷ mean of D5W control group
# studyConditions: Day 15; 0.5 mg/kg single SC injection day 1; female C57bl/6 mice, n=3; ratio to D5W control
In the oligonucleotide strings, read from the 5' end, every base follows the letter of its sugar. An asterisk marks phosphorothioate; unmarked linkages are phosphodiester. Other units and linkages are bracketed, terminal groups are in braces. A string of capitals states the bases alone. {NAG37} = tridentate N-acetyl-galactosamine targeting ligand, structure (NAG37)s; [invAb] = inverted abasic unit; m = 2'-O-methyl; f = 2'-fluoro
Answer each item with its documented Avg LDL, normalized to pre-treatment and control.

substance	assayResult
AD05418: RNAi agent duplex: antisense AM07159-AS, sense AM07158-SS (antisense mU*fU*mU*fGmAfAmUfUmAfAmUfGmUfCmCfAmUfGmGfG*mU; sense {NAG37}*[invAb]*mAmCmCmCmAmUmGmGfAfCfAmUmUmAmAmUmUmCmAmAmA*[invAb])	0.928
AD05775: RNAi agent duplex: antisense AM07235-AS, sense AM07608-SS (antisense UACUGAUCAAAUAUGUUGAGC; sense GCUCAACAUNUUUGAUCAGUA; (NAG37)s GalNAc ligand; RNAi agent antisense strand modified sequence; RNAi agent sense strand modified sequence; modified_base 10 n = 2′-O-methyl-2-aminoadenosine-3′-phosphate)	0.918

q: Please report the recorded Avg LDL, normalized to pre-treatment and control for AD05777: RNAi agent duplex: antisense AM07235-AS, sense AM07610-SS (antisense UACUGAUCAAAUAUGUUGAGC; sense GCUCAACNUNUUUGAUCAGUA; (NAG37)s GalNAc ligand; RNAi agent antisense strand modified sequence; RNAi agent sense strand modified sequence; modified_base 8, 10 n = 2′-O-methyl-2-aminoadenosine-3′-phosphate) .
a: 0.869

====

Task for the reader: assign each of the following substances its reported Avg TG, normalized to pre-treatment and control.
# Tested on: ANGPTL3 gene
# experimentDescription: Example 7: serum triglycerides in mice
# Format: in vivo, C57bl/6 mice
# Set-up: key: ratio: (level/pre-treatment day -1 level) ÷ mean of D5W control group
# studyConditions: Day 15, 0.5 mg/kg single SC injection on day 1, n=3
In the oligonucleotide strings, read from the 5' end, every base follows the letter of its sugar. An asterisk marks phosphorothioate; unmarked linkages are phosphodiester. Other units and linkages are bracketed, terminal groups are in braces. A string of capitals states the bases alone. {NAG37} = tridentate N-acetyl-galactosamine targeting ligand, structure (NAG37)s; [invAb] = inverted abasic unit; m = 2'-O-methyl; f = 2'-fluoro
Give bare numbers.

substance	assayResult
AD05418: RNAi agent duplex: antisense AM07159-AS, sense AM07158-SS (antisense mU*fU*mU*fGmAfAmUfUmAfAmUfGmUfCmCfAmUfGmGfG*mU; sense {NAG37}*[invAb]*mAmCmCmCmAmUmGmGfAfCfAmUmUmAmAmUmUmCmAmAmA*[invAb])	0.655

Attention now shifts to the item below.
q: For AD05308: RNAi agent duplex: antisense AM07003-AS, sense AM07002-SS (chain 1 mU*fG*mU*fUmGfAmAfUmUfAmAfUmGfUmCfCmAfUmGfG*mA; chain 2 {NAG37}*[invAb]*mUmCmCmAmUmGmGmAfCfAfUmUmAmAmUmUmCmAmAmCmA*[invAb]) , what is its reported Avg TG, normalized to pre-treatment and control?
a: 0.755
